# Tested on: HCT116 cancer cells
# Protocol: MTT cytotoxicity assay, HCT116
# Type: cell-based
# Recorded Conditions: Homo sapiens, HCT-116, 48 h, means (SD) of three trials
Measurement Name: IC50 (µM)
One number for each entry, in µM.

// worked examples, IC50 included
{"Molecule": "c1cn2c(NC3CCCCC3)c(-c3ccoc3)nc2cn1 [Compound 1b]", "System Under Test": "HCT116 cancer cells", "Test Result": 164}
{"Molecule": "COc1ccc(Nc2c(-c3ccc(O)cc3O)nc3cnccn23)cc1 [Compound 2d]", "System Under Test": "HCT116 cancer cells", "Test Result": 104}
{"Molecule": "CC(C)(C)Nc1c(-c2ccnc(F)c2)nc2cnccn12 [Compound 4a]", "System Under Test": "HCT116 cancer cells", "Test Result": 38.2}
{"Molecule": "CN(C)c1ccc(-c2nc3cnccn3c2NCc2ccccc2)cn1 [Compound 3c]", "System Under Test": "HCT116 cancer cells", "Test Result": 42.2}
{"Molecule": "c1ccc(CNc2c(-c3ccoc3)nc3cnccn23)cc1 [Compound 1c]", "System Under Test": "HCT116 cancer cells", "Test Result": 16.4}

Moving on to the next molecule.
// query IC50 value for entry Fc1cc(-c2nc3cnccn3c2NC2CCCCC2)ccn1 [Compound 4b]
15.3

* * *

# System: FHC normal cells
# Protocol: MTT assay against FHC normal cells
# Type: cell-based
# Recorded Conditions: MTT assay, normal noncancerous cells; read-out: FHC IC50
Can you tell me IC50 for the items I'm about to list?
One number for each entry, in µM.

{"Compound": "CC(C)(C)Nc1c(-c2ccoc2)nc2cnccn12", "Measurement Name": "IC50", "Test Result": 58.6}

Parameters: items (list). Returns: IC50 for each item.
1. Fc1cc(-c2nc3cnccn3c2NC2CCCCC2)ccn1
2. COc1ccc(Nc2c(-c3ccoc3)nc3cnccn23)cc1
3. CN(C)c1ccc(-c2nc3cnccn3c2NC2CCCCC2)cn1

[74.3, 187, 95.8]

* * *

# Protocol: Cytotoxicity on target cells in the antiviral assay
# Recorded Conditions: target cells of the HCoV-229E antiviral assay
Measurement Name: CC50 (µM)
Give bare numbers, in µM.

// worked examples, CC50 included
{"Compound": "CN(C)c1ccc(-c2nc3cnccn3c2NC2CCCCC2)cn1 [Compound 3b]", "CC50 (µM)": 213}
{"Compound": "CC(C)(C)Nc1c(-c2ccoc2)nc2cnccn12 [Compound 1a]", "CC50 (µM)": 1320}
{"Compound": "COc1ccc(Nc2c(-c3ccoc3)nc3cnccn23)cc1 [Compound 1d]", "CC50 (µM)": 846}

Moving on to the next compound.
// query CC50 value for entry CC(C)(C)Nc1c(-c2ccnc(F)c2)nc2cnccn12 [Compound 4a]
303

* * *

Can you tell me pIC50 for the items I'm about to list?
# System: HCT116 cancer cells
# Protocol: MTT cytotoxicity assay, HCT116
# Format: cell-based
# Recorded Conditions: Homo sapiens, HCT-116, 48 h, means (SD) of three trials
Answers are plain numbers, as −log10 of the molar value.

{"Compound": "COc1ccc(Nc2c(-c3ccc(N(C)C)nc3)nc3cnccn23)cc1", "Test Result": 3.83}
{"Compound": "Oc1ccc(-c2nc3cnccn3c2NC2CCCCC2)c(O)c1", "Test Result": 5.12}
{"Compound": "Oc1ccc(-c2nc3cnccn3c2NCc2ccccc2)c(O)c1", "Test Result": 4.25}
{"Compound": "CN(C)c1ccc(-c2nc3cnccn3c2NC2CCCCC2)cn1", "Test Result": 4.96}

Parameters: items (list). Returns: pIC50 for each item.
1. CN(C)c1ccc(-c2nc3cnccn3c2NC(C)(C)C)cn1
2. COc1ccc(Nc2c(-c3ccnc(F)c3)nc3cnccn23)cc1
3. CC(C)(C)Nc1c(-c2ccc(O)cc2O)nc2cnccn12

1. 5.38
2. 4.99
3. 3.87

Parameters: items (list). Returns: pIC50 for each item.
1. CC(C)(C)Nc1c(-c2ccoc2)nc2cnccn12
2. COc1ccc(Nc2c(-c3ccoc3)nc3cnccn23)cc1
3. Fc1cc(-c2nc3cnccn3c2NCc2ccccc2)ccn1

1: 4.67; 2: 4.97; 3: 4.01
